These data points were gathered from paper PMC6499816.

TEST_SYSTEM: GABARAP L55V (recombinant, BLI) (human, UniProt O95166 1-117, L55V)
PROCEDURE_DETAILS: BLI
Ends that are not written are not given here.
MEASUREMENT_LABEL: pKd
To interpret pKd, take it as minus log10 of a concentration measured in moles per litre.

Incoming: Using the record for SKDSSCDTDDFVMVPAQFPGDLVA (also: biotin, position not given here) [ULK1 LIR peptide (biotinylated, BLI)] , state its measured pKd.
Outgoing: 6.89

Incoming: Tell us which pKd value is on record for PDSIDAHTFDFETIPHPNIEQTIH (also: biotin, position not given here) [FIP200 LIR peptide (biotinylated, BLI)]
Outgoing: 5.07
